# System: Factor Xa procoagulant activity on THP-1 cells
# method description: Generation of Factor Xa by monocytes (THP-1), clotting assay
# Format: cell-based
# run parameters: peptides 0.5 mM
Collected Factor Xa values appear next to each entry.
// units = ng/mL; emit number, no label

GLYQAKRFKVG [Factor X I] :: 37.8

Challenge: Param item = GLIQGRSVKVD [FHA Ib] ; retrieve measured Factor Xa.
Response given: 31.3

Challenge: Param item = LGYQAK (UniProt P12255 1979-1984, looked up, fragment) [FHA Ia] ; retrieve measured Factor Xa.
Response given: 57.4

Challenge: Param item = ETKEVDG [FHA II] ; retrieve measured Factor Xa.
Response given: 86.0

Challenge: Param item = IDRSMKTRG [Factor X III] ; retrieve measured Factor Xa.
Response given: 107.5

Challenge: Param item = DEETVK [scrambled FHA II, reference compound] ; retrieve measured Factor Xa.
Response given: 165.0

###

# Tested on: transendothelial migration of human neutrophils through HUVEC monolayers
# method description: Transendothelial migration (TEM) of neutrophils
# Format: cell-based
# run parameters: peptides 0.01 mM, native FHA 1 μM; at least 3 experiments with 6 wells/peptide
Collected % Inhibition of TEM values appear next to each entry.
// units = %; emit number, no label

Solved cases (8 shown):
RGDPHQGVLAQGDIIMDAKG [FHA Ca] :: 83
ETKEVDG [FHA II] :: 21
GLIQGRSVKVD [FHA Ib] :: 7
IDRSMKTRG [Factor X III] :: 5
GTLLLRNDALTENGTVTISA [FHA Cd] :: 6
GYDTKQEDG [Factor X II] :: 14
AADPHQGVLAQGDIIMDAKG [FHA Cc] :: 11
GLYQAKRFKVG [Factor X I] :: 10

Challenge: Param item = LGYQAK (UniProt P12255 1979-1984, looked up, fragment) [FHA Ia] ; retrieve measured % Inhibition of TEM.
Response given: 23

Challenge: Param item = RADPHQGVLAQGDIIMDAKG [FHA Cb] ; retrieve measured % Inhibition of TEM.
Response given: 8

Challenge: Param item = DEETVK [scrambled FHA II, reference compound] ; retrieve measured % Inhibition of TEM.
Response given: 4

###

Collected Total protein in CSF, 7 hours values appear next to each entry.
# Test system: blood brain barrier permeability (CSF protein)
# method description: Rabbit model for meningitis: protein in CSF (blood brain barrier permeability)
# Type: in vivo, New Zealand white rabbits
# run parameters: 7 hours after inoculation (Example 11, 1 μM peptide; FHA 0.1 μM)
// units = mg/mL; emit number, no label

Solved cases (3 shown):
RADPHQGVLAQGDIIMDAKG [FHA Cb] :: 2.28
RGDPHQGVLAQGDIIMDAKG [FHA Ca] :: 1.69
GTLLLRNDALTENGTVTISA [FHA Cd] :: 2.03

Please turn your attention to the following entry.
Challenge: API: value(readout= Total protein in CSF, 7 hours, system= blood brain barrier permeability (CSF protein), query= AADPHQGVLAQGDIIMDAKG [FHA Cc] )
Response given: 1.90

###

# Test system: Factor Xa procoagulant activity on THP-1 cells
# method description: Generation of Factor Xa by monocytes (THP-1), clotting assay
# Assay type: cell-based
# run parameters: peptides 0.5 mM; mean ± SD of at least 3 experiments
# Protocol: Factor Xa generation was determined by a modification of the method of Miletich et al. (1978), J. Biol. Chem. 253: 6908-6916. […] Coagulation was initiated by adding 100 μl of 25 mM CaC2 and the clotting time was determined. Factor Xa procoagulant activity (ng/ml) was calculated by means of a standard curve constructed by serial concentrations of Factor Xa (Hematologic Technologies Inc.) from 50 to 250 ng/ml.
experimental readout: Clotting time (s)
// units = s; emit number, no label

Solved cases (5 shown):
ETKEVDG [FHA II] :: 30.0
GLYQAKRFKVG [Factor X I] :: 37.0
LGYQAK (UniProt P12255 1979-1984, looked up, fragment) [FHA Ia] :: 34.1
DEETVK [scrambled FHA II, reference compound] :: 23.1
IDRSMKTRG [Factor X III] :: 26.5

Challenge: API: value(readout= Clotting time, system= Factor Xa procoagulant activity on THP-1 cells, query= GYDTKQEDG [Factor X II] )
Response given: 55.2

Challenge: API: value(readout= Clotting time, system= Factor Xa procoagulant activity on THP-1 cells, query= GLIQGRSVKVD [FHA Ib] )
Response given: 38.0
